# credit: the supplement of paper PMC10201428

B1: library; a variant is named by its letters at N, in order (parent)
chain: ACATTTGTTGATACAACCATAAAATGATAATTACACCCATAAATTGATAATTATCACACCCANNNNNNNNNNNNNNCTCTGATCATAGTCAGACCAACATTGCTACGACCCGTATTCGCACCGACAC

Variants of: B1
Test: relative integration efficiency (T-RL orientation) vs wild-type transposon end (log2 (normalized fold change)); transposon end mutated: right end (5 bp flank + 75 bp right end); higher = more efficient transposition
Details: with VchCAST RNA-guided transposition machinery (E. coli BL21(DE3) host, lacZ target)
Class 1: relative integration efficiency (log2) at least -0.3. Class -1: relative integration efficiency (log2) below -0.3.

Before answering, review these 5 worked examples.
TAAATTGATATTTA; 1
TAAATTGATATCGC; 1
TAAATTGATATTGC A19C; -1
ATTTAACTATAACG A13T; -1
ATTTAACTATAACG A30G; -1

Exam item: decide whether the reported relative integration efficiency (log2) for ATTTAACTATAACG A23T is at least -0.3.
Marked response: -1

Exam item: Entry TAAATTGATATTGC T32C : is its relative integration efficiency (log2) no less than -0.3?
Marked response: -1

Exam item: Is the recorded value of relative integration efficiency (log2) equal to or greater than -0.3 for this variant? `TAAATTGATATTGG`
Marked response: 1

Exam item: Has TAAATTGATATTGC A39T a recorded relative integration efficiency (log2) greater than or equal to -0.3?
Marked response: 1

Exam item: Could you please find out whether ATTTAACTATAACG A15T has relative integration efficiency (log2) that meets -0.3 or exceeds it?
Marked response: -1

Exam item: decide whether the reported relative integration efficiency (log2) for ATTTAACTATAACG A30T is at least -0.3.
Marked response: 1
